- Tested on: primary human fibroblasts derived from IPF patients (LL29 cells)
- assay.explanation: Inhibition of fibrosis (αSMA) in TGF-β1 treated primary human fibroblasts from IPF patients
- Format: cell-based
- conditions: Fibroblast, 96 h, TGF-β1 20 ng/mL, 4 days, % αSMA positive cells
pEC50: −log10 of the molar value.
Each entry gets Condition not met if its pEC50 stays under 10, and Condition met if its pEC50 is 10 or above.

Past entries and their recorded results:
{"molecule": "c1ccc(CNCc2cncc(-c3ccc4[nH]nc(-c5nc6c(-c7cccnc7)ccnc6[nH]5)c4c3)c2)cc1 [Compound 101]", "assigned.class": "Condition not met"}
{"molecule": "CCC(=O)Nc1cncc(-c2ccc3[nH]nc(-c4nc5c(-c6cccc(F)c6)ccnc5[nH]4)c3c2)c1 [Compound 1]", "assigned.class": "Condition met"}
{"molecule": "Fc1cccc(-c2ccnc3[nH]c(-c4n[nH]c5ccc(C6CCNCC6)cc45)nc23)c1 [Compound 1873]", "assigned.class": "Condition met"}

Exercise: Reported pEC50 at or above 10? O=C(Nc1cncc(-c2ccc3[nH]nc(-c4nc5c(-c6ccccn6)ccnc5[nH]4)c3c2)c1)c1ccccc1 [Compound 141]
Key: Condition not met

Exercise: Reported pEC50 at or above 10? CC(C)C(=O)Nc1cncc(-c2ccc3[nH]nc(-c4nc5c(-c6cccc(F)c6)ccnc5[nH]4)c3c2)c1 [Compound 9]
Key: Condition not met

* * *

- System: primary human fibroblasts derived from IPF patients (LL29 cells)
- assay.explanation: Inhibition of fibrosis (αSMA) in TGF-β1 treated primary human fibroblasts from IPF patients
- Assay type: cell-based
- conditions: Fibroblast, 96 h, TGF-β1 20 ng/mL, 4 days, % αSMA positive cells
Recorded EC50 determines the group label, using low end = under 0.2 nM, middle = from 0.2 nM up to 0.8 nM, high end = 0.8 nM and over

Past entries and their recorded results:
{"sample.smiles": "O=C(Nc1cncc(-c2ccc3[nH]nc(-c4nc5c(-c6ccoc6)ccnc5[nH]4)c3c2)c1)C1CCC1", "target": "primary human fibroblasts derived from IPF patients (LL29 cells)", "assigned.class": "middle"}
{"sample.smiles": "CN(C)Cc1cncc(-c2ccc3[nH]nc(-c4nc5cccnc5[nH]4)c3c2)c1", "target": "primary human fibroblasts derived from IPF patients (LL29 cells)", "assigned.class": "low end"}
{"sample.smiles": "Cc1ccc(-c2ccnc3[nH]c(-c4n[nH]c5ccc(-c6cncc(NC(=O)C7CCCC7)c6)cc45)nc23)s1", "target": "primary human fibroblasts derived from IPF patients (LL29 cells)", "assigned.class": "low end"}
{"sample.smiles": "Cc1ccc(-c2ccnc3[nH]c(-c4n[nH]c5ccc(-c6cncc(CN7CCCCC7)c6)cc45)nc23)s1", "target": "primary human fibroblasts derived from IPF patients (LL29 cells)", "assigned.class": "middle"}
{"sample.smiles": "c1cc(-c2ccoc2)c2nc(-c3n[nH]c4ccc(-c5cncc(CNCC6CCCC6)c5)cc34)[nH]c2n1", "target": "primary human fibroblasts derived from IPF patients (LL29 cells)", "assigned.class": "high end"}

Exercise: Form: Item = Fc1cccc(-c2ccnc3[nH]c(-c4n[nH]c5ccc(-c6cn[nH]c6)cc45)nc23)c1 ; Class = ?
Key: low end

Exercise: Form: Item = NC1CN(c2cncc(-c3ccc4[nH]nc(-c5nc6c(-c7cccc(F)c7)ccnc6[nH]5)c4c3)n2)C1 ; Class = ?
Key: high end

Exercise: Form: Item = CC(C)(C)CC(=O)Nc1cncc(-c2ccc3[nH]nc(-c4nc5cccnc5[nH]4)c3c2)c1 ; Class = ?
Key: high end

Exercise: Form: Item = CN(C)Cc1cncc(-c2ccc3[nH]nc(-c4nc5c(N6CCCCC6)ccnc5[nH]4)c3c2)c1 ; Class = ?
Key: middle

Exercise: Form: Item = CCC(=O)Nc1cncc(-c2ccc3[nH]nc(-c4nc5c(N6CCCCC6)ccnc5[nH]4)c3c2)c1 ; Class = ?
Key: middle

Exercise: Form: Item = Fc1cccc(-c2ccnc3[nH]c(-c4n[nH]c5ccc(-c6cncc(OC7CCCCC7)c6)cc45)nc23)c1 ; Class = ?
Key: high end
